This collection of values is drawn from the supplement of paper PMC8728848.

# tested.system: Fuc(b1-3)GlcNAc
# assay.protocol: glycan array binding signal (z-score within array); higher = stronger binding
# conditions.used: glycan notation: IUPAC condensed, linker removed
Many of the other results were omitted from the sample, so the strongest signals are more common in it than they were.
outcome.measure: glycan array binding signal (z-score)
Answers are plain numbers.

- binder: "Clrb (Mus musculus) (protein) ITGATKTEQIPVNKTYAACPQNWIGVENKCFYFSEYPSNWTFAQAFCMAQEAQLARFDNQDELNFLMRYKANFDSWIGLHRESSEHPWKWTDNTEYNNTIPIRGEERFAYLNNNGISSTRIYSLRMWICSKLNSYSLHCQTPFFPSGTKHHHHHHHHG"
  outcome.measure: "glycan array binding signal (z-score)"
  observed: -0.294
- binder: "XTP3-B-MRH2 (Homo sapiens), Q96DZ1 (protein) EFLSGSYCFRGGVGWWKYEFCYGKHVHQYHEDKDSGKTSVVVGTWNQEEHIEWAKKNTARAYHLQDDGTQTVRMVSHFYGNGDICDITDKPRQVTVKLKCKESDSPHAVTVYMLEPHSCQYILGVESPVICKILDTA"
  outcome.measure: "glycan array binding signal (z-score)"
  observed: -0.321
- binder: "AICL (Homo sapiens), Q92478 (protein) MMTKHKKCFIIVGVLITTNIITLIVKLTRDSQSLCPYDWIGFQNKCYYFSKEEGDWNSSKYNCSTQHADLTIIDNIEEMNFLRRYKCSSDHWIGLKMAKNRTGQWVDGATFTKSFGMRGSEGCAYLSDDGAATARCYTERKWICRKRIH"
  outcome.measure: "glycan array binding signal (z-score)"
  observed: -0.469

Below are some binders; for each one, tell me its glycan array binding signal (z-score).
1. Gal 10 (Homo sapiens), Q05315 (protein) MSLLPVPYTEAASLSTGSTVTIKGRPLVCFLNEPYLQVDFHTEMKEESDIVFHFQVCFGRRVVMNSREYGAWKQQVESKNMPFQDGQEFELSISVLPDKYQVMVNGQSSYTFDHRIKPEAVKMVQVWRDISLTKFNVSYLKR
2. Microvirin-2 (Microcystis aeruginosa) (protein) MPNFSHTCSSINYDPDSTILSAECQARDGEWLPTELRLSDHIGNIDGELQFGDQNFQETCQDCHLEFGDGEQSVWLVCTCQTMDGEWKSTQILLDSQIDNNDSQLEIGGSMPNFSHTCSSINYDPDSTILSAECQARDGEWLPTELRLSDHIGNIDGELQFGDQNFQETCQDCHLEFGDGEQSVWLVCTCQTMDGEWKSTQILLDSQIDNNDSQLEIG
3. AAL (Agrocybe aegerita), Q6WY08 (protein) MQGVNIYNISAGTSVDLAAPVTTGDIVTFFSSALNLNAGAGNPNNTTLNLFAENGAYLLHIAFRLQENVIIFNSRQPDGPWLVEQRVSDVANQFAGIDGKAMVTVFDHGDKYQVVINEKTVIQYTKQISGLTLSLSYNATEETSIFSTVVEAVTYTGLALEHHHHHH
4. YASPKCFRYPNGVLACT [Odorranalectin (Odorrana grahami), B3TFE9_RANGR]

[0.585, -0.137, -0.123, -0.094]
